# experimental.target: T1, human apical domain of CD71 (human, UniProt P02786 189-383, limits assumed)
# T1 construct: domain: apical domain
# T1 sequence (P02786 189-383 limits assumed): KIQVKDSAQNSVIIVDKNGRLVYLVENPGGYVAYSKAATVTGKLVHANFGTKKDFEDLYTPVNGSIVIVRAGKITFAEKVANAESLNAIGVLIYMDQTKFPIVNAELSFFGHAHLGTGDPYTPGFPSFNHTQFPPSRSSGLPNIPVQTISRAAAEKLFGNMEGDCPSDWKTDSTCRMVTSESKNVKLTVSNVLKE
# test.description: primary ELISA; signal over HSA control
// Condition not met strictly below 200 ratio in Apical domain:HSA; Condition met otherwise

# binder, class.assignment
data = [
    ("CD71-binding FN3 domain SEQ ID NO 380 (designed binder) MLPAPKNLVVSRVTEDSARLSWTAPDAAFDSFFIGYLEPQPPGEAIGLFVPGSERSYDLTGLKPGTEYNVTIQGVKGGFPSMPLSAIFTT", "Condition not met"),
    ("CD71-binding FN3 domain SEQ ID NO 445 (designed binder) MLPAPKNLVVSRVTEDSARLSWTAPDAAFDSFFIGYLEPQPPGEAIHLFVPGSERSYDLTGLKPGTEYNVTIQGVKGGFPSDPLVASFTT", "Condition not met"),
    ("CD71-binding FN3 domain SEQ ID NO 352 (designed binder) MLPAPKNLVVSRVTEDSARLSWTAPDAAFDSFEIAYQELSLWGEAIVLTVPGSERSYDLTGLKPGTEYYVHIGGVKGGIWSSPLSAIFTT", "Condition not met"),
    ("CD71-binding FN3 domain SEQ ID NO 440 (designed binder) MLPAPKNLVVSRVTEDSARLSWTAPDAAFDSFEIVYAEWTQHGEAIVLTVPGSERSYDLTGLKPGTEYYVHIGGVKGGKWSPPLYAIFTT", "Condition not met"),
    ("CD71-binding FN3 domain SEQ ID NO 422 (designed binder) MLPAPKNLVVSRVTEDSARLSWTAPDAAFDSFFIGYLEPQPPGEAISLLVPGSERSYDLTGLKPGTEYNVTIQGVKGGFPSHPLDASFTT", "Condition met"),
    ("CD71-binding FN3 domain SEQ ID NO 363 (designed binder) MLPAPKNLVVSRVTEDSARLSWTAPDAAFDSFFIGYLEPQPPGEAIDLWVPGSERSYDLTGLKPGTEYNVTIQGVKGGFPSLPLSAIFTT", "Condition met"),
    ("CD71-binding FN3 domain SEQ ID NO 361 (designed binder) MLPAPKNLVVSRVTEDSARLSWTAPDAAFDSFFIGYLEPQPPGEAIQLFVPGSERSYDLTGLKPGTEYNVTIQGVKGGFPSIPLSALFTT", "Condition met"),
    ("CD71-binding FN3 domain SEQ ID NO 426 (designed binder) MLPAPKNLVVSRVTEDSARLSWTAPDAAFDSFFIGYLEPQPPGEAIFLLVPGSERSYDLTGLKPGTEYNVTIQGVKGGFPSMPLSAIFTT", "Condition not met"),
]

stdin: Check the entry CD71-binding FN3 domain SEQ ID NO 371 (designed binder) MLPAPKNLVVSRVTEDSARLSWTAPDAAFDSFDIDYVEFGWTGEAIALLVPGSERSYDLTGLKPGTEYWVWIGGVKGGDYSPPLNAYFTT : does Apical domain:HSA equal or exceed 200 ratio?
stdout: Condition not met
